Values from patent US20240270846A1

systemUnderTest: T1, biotin-labeled human CD137 fused to human IgG1 Fc fragment (human, biotin-labeled)
T1 construct: also called human CD137-Fc; biotin-human CD137-Fc
T1 sequence (chain, as listed by the source limits assumed): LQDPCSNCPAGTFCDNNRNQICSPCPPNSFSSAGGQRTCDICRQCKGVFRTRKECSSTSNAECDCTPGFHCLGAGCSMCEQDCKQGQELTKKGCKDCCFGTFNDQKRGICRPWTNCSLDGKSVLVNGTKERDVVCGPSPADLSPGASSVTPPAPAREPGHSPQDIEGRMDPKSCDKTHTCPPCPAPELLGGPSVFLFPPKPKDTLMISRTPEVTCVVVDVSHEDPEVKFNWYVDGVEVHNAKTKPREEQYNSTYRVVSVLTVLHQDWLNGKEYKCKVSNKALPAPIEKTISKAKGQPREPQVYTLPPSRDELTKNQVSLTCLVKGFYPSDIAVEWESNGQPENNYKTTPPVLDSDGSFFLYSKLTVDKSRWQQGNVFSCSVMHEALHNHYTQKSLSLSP
assayDetails: bead ELISA (chemiluminescence), purified IgG on biotin labeled human CD137-Fc on streptavidin beads
valueType: RLU (RLU)

binder	valueType	unitsLabel	reportedResult
DXDU01_3#019 (antibody, human IgG1, V domains shown, IgG: VH joined to human IgG1 CH1-Fc; also called dBBDu125) VH: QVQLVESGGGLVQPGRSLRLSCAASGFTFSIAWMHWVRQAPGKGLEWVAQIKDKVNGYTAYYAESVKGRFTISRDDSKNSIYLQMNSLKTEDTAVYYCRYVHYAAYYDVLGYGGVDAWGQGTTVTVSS VL: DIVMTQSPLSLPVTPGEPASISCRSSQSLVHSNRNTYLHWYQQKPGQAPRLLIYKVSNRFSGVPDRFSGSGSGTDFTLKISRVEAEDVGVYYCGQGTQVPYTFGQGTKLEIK	RLU	RLU	77800
